B1: tRNA (parent)
chain: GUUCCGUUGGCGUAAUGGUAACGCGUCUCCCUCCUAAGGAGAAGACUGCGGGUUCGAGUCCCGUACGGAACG

variants of: B1; assay: yeast fitness relative to wild type (ratio to wild type); higher = fitter; tRNA-Arg(CCU), competitive growth, 37 C, YPD
Fewer inactive variants are shown than the library holds.
# key: entry, value: yeast fitness

# Mutant Label, yeast fitness
records = [
    ("C5A C34U C49A G52A", "≤ 0.5"),
    ("C5A U8C U13C G18A C31G C46U", "≤ 0.5"),
    ("G6C C31U U35A C46G G48A C49U U64C", "≤ 0.5"),
    ("C33U G56A C61G C66U", "≤ 0.5"),
    ("C33U C61U A69G", "≤ 0.5"),
    ("G6A C31G C61U", "≤ 0.5"),
    ("A14U A37U A65G", "≤ 0.5"),
    ("C4A A14U C34G G56C", "≤ 0.5"),
    ("G6A G9C U32C A36G", "≤ 0.5"),
    ("U2A U16C C30A G56A G68C", 0.541),
    ("C24U G48C C55U", 0.614),
    ("U3G U8C", 0.681),
]
